- Measurement Protocol: stimulators of insulin release from INS-1E, primary screen, cell-based, 5 mM glucose, NPC library (AID 1117329); also: reference of the scale not given here
- Condition: rat INS-1E insulin secretion, at 10 µM
Active and inactive are the calls of the source.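 The calls were made as follows: active = compound raises insulin release from rat beta cells at 5 mM glucose, no numeric limit stated; inactive = the rest.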
Please answer using one outcome listed in TRUE (active), FALSE (inactive)

*Q* Look up the recorded call for CN(C)CCCO[C@@H]1[C@H]2OC(C)(C)O[C@H]2O[C@@H]1C(O)CO (stereo partly drawn) in this test.
*A* FALSE

*Q* Look up the recorded call for CC(C(=O)O)c1cccc(C(=O)c2ccccc2)c1 (stereo not drawn) in this test.
*A* FALSE

*Q* Look up the recorded call for CN1CCC[C@@H]1Cc1c[nH]c2ccc(CCS(=O)(=O)c3ccccc3)cc12 in this test.
*A* FALSE

*Q* Look up the recorded call for Nc1ncn([C@H]2C[C@H](O)[C@@H](CO)O2)c(=O)n1 in this test.
*A* FALSE

*Q* Look up the recorded call for O=C(O)c1c(Cl)c(Cl)c(Cl)c(Cl)c1-c1c2cc(I)c(=O)c(I)c-2oc2c(I)c(O)c(I)cc12 in this test.
*A* FALSE

*Q* Look up the recorded call for OC[C@@H](O)[C@@H](O)[C@H](O)[C@H](O)CO in this test.
*A* FALSE

*Q* Look up the recorded call for O[C@@H](CNC[C@H](O)[C@H]1CCc2cc(F)ccc2O1)[C@@H]1CCc2cc(F)ccc2O1 in this test.
*A* FALSE

*Q* Look up the recorded call for Cc1cc(CC(C)CC(C)(C)C)n(O)c(=O)c1 (stereo not drawn) in this test.
*A* FALSE

*Q* Look up the recorded call for O=S(=O)(c1cccc2cnccc12)N1CCCNCC1 in this test.
*A* FALSE

*Q* Look up the recorded call for O=C(O)COCCN1CCN(C(c2ccccc2)c2ccc(Cl)cc2)CC1 (stereo not drawn) in this test.
*A* FALSE

*Q* Look up the recorded call for CN1CCCN=C1/C=C/c1cccs1 in this test.
*A* FALSE

*Q* Look up the recorded call for FC(F)(F)c1ccccc1-n1ccnc1 in this test.
*A* FALSE

*Q* Look up the recorded call for Nc1cc(=O)[nH]c(N)n1 in this test.
*A* FALSE

*Q* Look up the recorded call for CCN(CC)CCNC(C(=O)OCCC(C)C)c1ccccc1 (stereo not drawn) in this test.
*A* TRUE

*Q* Look up the recorded call for CCCCC(O)c1ccccc1 (stereo not drawn) in this test.
*A* FALSE

*Q* Look up the recorded call for O=c1[nH]c(=O)n([C@H]2CCCO2)cc1F in this test.
*A* FALSE

*Q* Look up the recorded call for CC(C)=CCC[C@@](C)(O)[C@H]1CC=C(C)CC1 in this test.
*A* FALSE

*Q* Look up the recorded call for CC(C)NC[C@@H](O)COc1ccc(CC(N)=O)cc1 in this test.
*A* FALSE

*Q* Look up the recorded call for CCCCCCCCCCCCCCCC[N+](C)(C)CCN(Cc1ccc(OC)cc1)c1ncccn1 in this test.
*A* FALSE

*Q* Look up the recorded call for CN1C[C@@H]2C[C@H]1CN2c1cc2c(cc1F)c(=O)c(C(=O)O)cn2C1CC1 in this test.
*A* FALSE

*Q* Look up the recorded call for CCN(CC)C(=O)c1cccnc1 in this test.
*A* FALSE

*Q* Look up the recorded call for N[C@H]1C(O)O[C@H](CO)[C@@H](O)[C@@H]1O (stereo partly drawn) in this test.
*A* FALSE

*Q* Look up the recorded call for CCC1=C[C@@H]2CN(C1)Cc1c([nH]c3ccccc13)[C@@](C(=O)OC)(c1cc3c(cc1OC)N(C)[C@H]1[C@@](O)(C(=O)OC)[C@H](OC(C)=O)[C@]4(CC)C=CCN5CC[C@]31[C@@H]54)C2 in this test.
*A* FALSE

====

Exercise: for every item that follows, state its recorded log fold change Tl+ flux.
- Tested on: F380Y/beta1
- Measurement Protocol: modulators of BK channel variants, profiling panel, selectivity assay, cell-based, U2OS BacMam, thallium flux, beta subunits (AID 1259406);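 also: initial slope of Thallos dye fluorescence rise after thallium is added; log ratio against the mean of 0.3% DMSO vehicle wells on the same plate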
- Condition: at 30 µM
Answer field: number only, no words.

*Q* Provide log fold change Tl+ flux, recorded with F380Y/beta1, of CCCCC(=O)O[C@H]1CC[C@H]2[C@@H]3CCc4cc(O)ccc4[C@H]3CC[C@]12C
*A* -0.0484

*Q* Provide log fold change Tl+ flux, recorded with F380Y/beta1, of NC(=O)c1cccnc1
*A* -0.0163

*Q* Provide log fold change Tl+ flux, recorded with F380Y/beta1, of CNCCC=C1c2ccccc2CCc2ccccc21
*A* 0.0784

*Q* Provide log fold change Tl+ flux, recorded with F380Y/beta1, of C#C[C@]1(O)CC[C@H]2[C@@H]3CCC4=CC(=O)CC[C@@H]4[C@H]3CC[C@@]21C
*A* 0.0886

*Q* Provide log fold change Tl+ flux, recorded with F380Y/beta1, of CC(C)NCC(O)COc1cccc2ccccc12 (stereo unspecified)
*A* -0.00888

*Q* Provide log fold change Tl+ flux, recorded with F380Y/beta1, of O=C(Nc1ccc(Oc2ccc(OC(F)(F)F)cc2)cc1)c1ccco1
*A* -0.196

*Q* Provide log fold change Tl+ flux, recorded with F380Y/beta1, of CC(C)(C(=O)O)c1ccc(C(O)CCCN2CCC(C(O)(c3ccccc3)c3ccccc3)CC2)cc1 (stereo unspecified)
*A* -0.0158

*Q* Provide log fold change Tl+ flux, recorded with F380Y/beta1, of Cc1occc(=O)c1O
*A* 0.0152

*Q* Provide log fold change Tl+ flux, recorded with F380Y/beta1, of C#C[C@]1(OC(C)=O)CC[C@H]2[C@@H]3CCC4=CC(=O)CC[C@@H]4[C@H]3CC[C@@]21C
*A* 0.0384

*Q* Provide log fold change Tl+ flux, recorded with F380Y/beta1, of CC(=O)N=c1sc(S(N)(=O)=O)nn1C
*A* -0.0785

*Q* Provide log fold change Tl+ flux, recorded with F380Y/beta1, of CC(CCc1ccccc1)NCC(O)c1ccc(O)c(C(N)=O)c1 (stereo unspecified)
*A* 0.0226

====

- Measurement Protocol: growth inhibition of GSK3B-pretreated HCT116 cells – cell-based, CellTiter-Glo, 0.2 to 20 µM (AID 1117336)
- Condition: HCT116 viability after GSK3B inhibitor, at 20 µM
Activity calls are given as the source filed them.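 Rule for the calls: active = compounds lowering colon cancer cell viability after pretreatment blocking the GSK3B kinase; inactive = the rest.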
Please answer using one outcome listed in Yes = active, No = inactive

*Q* Look up the recorded call for CN(C)CCCO[C@@H]1[C@H]2OC(C)(C)O[C@H]2O[C@@H]1C(O)CO (some centres not stated) in this test.
*A* No

*Q* Look up the recorded call for COc1cc(Nc2c(C#N)cnc3cc(OCCCN4CCN(C)CC4)c(OC)cc23)c(Cl)cc1Cl in this test.
*A* Yes

*Q* Look up the recorded call for NS(=O)(=O)c1ccc(C(=O)O)cc1 in this test.
*A* No

*Q* Look up the recorded call for Cl/C(=C\n1cncn1)c1ccc(Cl)cc1Cl in this test.
*A* No

*Q* Look up the recorded call for Clc1ccc(C(Cn2ccnc2)OCc2ccc(Sc3ccccc3)cc2)c(Cl)c1 (configuration not stated) in this test.
*A* Yes

*Q* Look up the recorded call for CC1(COc2ccc(CC3SC(=O)NC3=O)cc2)CCCCC1 (configuration not stated) in this test.
*A* Yes

*Q* Look up the recorded call for CCn1ccnc1CC1COc2ccccc2O1 (configuration not stated) in this test.
*A* No

*Q* Look up the recorded call for CC1(CN2CCC(n3c(=O)[nH]c4ccccc43)CC2)OCc2ccccc2-n2cccc21 (configuration not stated) in this test.
*A* Yes

*Q* Look up the recorded call for O=C(OCCOCCO)c1ccccc1Nc1cccc(C(F)(F)F)c1 in this test.
*A* Yes

*Q* Look up the recorded call for O=C(CS(=O)Cc1ccco1)NC/C=C\COc1cc(CN2CCCCC2)ccn1 (configuration not stated) in this test.
*A* No

*Q* Look up the recorded call for O=C1OC(CN2CCOCC2)CN1/N=C/c1ccc([N+](=O)[O-])o1 (configuration not stated) in this test.
*A* No

*Q* Look up the recorded call for C=CCN1C[C@H](C(=O)N(CCCN(C)C)C(=O)NCC)C[C@@H]2c3cccc4[nH]cc(c34)C[C@H]21 in this test.
*A* No

*Q* Look up the recorded call for C1CCN2C[C@@H]3C[C@@H](CN4CCCC[C@@H]34)[C@H]2C1 in this test.
*A* No

*Q* Look up the recorded call for C[C@@H](C1=C(CCN(C)C)Cc2ccccc21)c1ccccn1 in this test.
*A* No

*Q* Look up the recorded call for NCCCC(O)(P(=O)(O)O)P(=O)(O)O in this test.
*A* No

*Q* Look up the recorded call for CCCN(CCC)CCc1cccc2c1CC(=O)N2 in this test.
*A* No

*Q* Look up the recorded call for CNC(=O)c1cc(Oc2ccc(NC(=O)Nc3ccc(Cl)c(C(F)(F)F)c3)cc2)ccn1 in this test.
*A* Yes

*Q* Look up the recorded call for CC(=O)OCC(=O)[C@@]1(O)CCC2C3CCC4=CC(=O)CC[C@]4(C)C3[C@@H](O)C[C@@]21C (some centres not stated) in this test.
*A* No

*Q* Look up the recorded call for CN1CCN(CCCN2c3ccccc3Sc3ccc(S(=O)(=O)N(C)C)cc32)CC1 in this test.
*A* Yes

*Q* Look up the recorded call for C[C@@H](NCCCc1cccc(C(F)(F)F)c1)c1cccc2ccccc12 in this test.
*A* Yes

*Q* Look up the recorded call for Cc1nnc(C(=O)NC(C)(C)c2nc(C(=O)NCc3ccc(F)cc3)c(O)c(=O)n2C)o1 in this test.
*A* No

*Q* Look up the recorded call for CCCCOCCOCCOCc1cc2c(cc1CCC)OCO2 in this test.
*A* No
